Target: T1, hArtemin-MMH (human)
T1 construct: also called hARTN.mmh; hARTN (A108-G220).mmh
T1 chain: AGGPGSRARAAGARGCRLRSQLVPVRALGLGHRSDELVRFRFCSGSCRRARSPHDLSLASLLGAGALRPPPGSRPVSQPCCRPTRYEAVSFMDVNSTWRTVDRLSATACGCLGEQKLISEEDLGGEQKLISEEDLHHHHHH
Assay: SPR Biacore T200, hArtemin-MMH captured by anti-myc mAb, mAb injected, 25 C
pKd: −log10 of the molar value.
pKd reference
READOUT_NAME: pKd

{"BINDER": "H4H33331P (antibody, human IgG4 S228P, kappa, V domains shown, Fully human antibody (human variable and constant domains) from a VELOCIMMUNE mouse; also called Artemin mAb; anti-ARTN antibody) VH: EVQLVESGGDLVQPGGSLKLSCAASGFTFSGSAMHWVRQASGKGLEWVGRIRNKVHRYATEYGASVKGRFTISRDDSKNTAYLQMNSLKIEDTAVYYCVVVVPGSIEAFDIWGQGTMVTVSS VL: DIQMTQSPSSLSASVGDRVTITCRASQSISTYLNWYQQKPGKAPNLLIYAASTLESGVPSRFSGSGSGTDFTLTISSLQPEDFEIYYCQQSYNIPWTFGQGTKVEIKR", "OBSERVED": 8.54}
{"BINDER": "H4H33349P (antibody, human IgG4 S228P, kappa, V domains shown, Fully human antibody; also called Artemin mAb; anti-ARTN antibody) VH: QVQLVESGGGVVQPGRSLRLSCEASGFTFSDYDLHWVRQAPGKGLEWVAFISNDGSNEYYPKSVKGRFSISRDNSKNTLYLQMNSLRAEDTAVYHCTKERDYYYDSSGSLDYWGQGTLVTVSS VL: DIQMTQSPSSLSASVGDRVTITCRASQTINNYLNWYQQKPGKAPKLLIYTTSGLQSGVPSRFSGRGSGTDFTLAISSLQPEDFATYYCQQSYHSPFTFGPGTKVDIKR", "OBSERVED": 9.92}
{"BINDER": "H4H33335P (antibody, human IgG4 S228P, kappa, V domains shown, Fully human antibody; also called Artemin mAb; anti-ARTN antibody) VH: EVQLVESGGGLVQPGGSLRLSCAASGFTFSSYDMHWVRQATGKGLEWVSTIDTAGDTYYPGSVKGRFTISRENAKNSLYLQMNSLRAGDTAVYYCARDGELELQGYFDLWGRGTLVTVSS VL: DIQMTQSPSSLSASVGDRVTITCRASQIISIYLNWYQQKPGKAPKLLIYAASSLQSGVPSRFSGSGSGTDFTLTISSLQPEDFATYYCQQSYTTPLTFGGGTKVEIKR", "OBSERVED": 8.65}
{"BINDER": "H4H33336P (antibody, human IgG4 S228P, kappa, V domains shown, Fully human antibody; also called Artemin mAb; anti-ARTN antibody) VH: QVQLVESGGGVVQPGRSLRLSCVASGFILSHYGMHWVRQAPGKGLEWVAVIWFDGTNKYYADSVKGRFTVSRDNSKNTLYMQMNSLRAEDTAVYYCARDPPPARRGNYNGMDVWGQGTTVTVSS VL: DIQMTQSPSSLSASVGDRVTITCRASQDIRNDLGWYQQKPGKAPKRLIFGASSLQSGVPLRFSGSGSGTEFTLTINNLQPEDFATFYCLQDNSYPWTFGQGTKVEIKR", "OBSERVED": 9.82}
